- System: CDK12 (Homo sapiens, UniProt Q9NYV4)
- Sequence (Q9NYV4 whole entry): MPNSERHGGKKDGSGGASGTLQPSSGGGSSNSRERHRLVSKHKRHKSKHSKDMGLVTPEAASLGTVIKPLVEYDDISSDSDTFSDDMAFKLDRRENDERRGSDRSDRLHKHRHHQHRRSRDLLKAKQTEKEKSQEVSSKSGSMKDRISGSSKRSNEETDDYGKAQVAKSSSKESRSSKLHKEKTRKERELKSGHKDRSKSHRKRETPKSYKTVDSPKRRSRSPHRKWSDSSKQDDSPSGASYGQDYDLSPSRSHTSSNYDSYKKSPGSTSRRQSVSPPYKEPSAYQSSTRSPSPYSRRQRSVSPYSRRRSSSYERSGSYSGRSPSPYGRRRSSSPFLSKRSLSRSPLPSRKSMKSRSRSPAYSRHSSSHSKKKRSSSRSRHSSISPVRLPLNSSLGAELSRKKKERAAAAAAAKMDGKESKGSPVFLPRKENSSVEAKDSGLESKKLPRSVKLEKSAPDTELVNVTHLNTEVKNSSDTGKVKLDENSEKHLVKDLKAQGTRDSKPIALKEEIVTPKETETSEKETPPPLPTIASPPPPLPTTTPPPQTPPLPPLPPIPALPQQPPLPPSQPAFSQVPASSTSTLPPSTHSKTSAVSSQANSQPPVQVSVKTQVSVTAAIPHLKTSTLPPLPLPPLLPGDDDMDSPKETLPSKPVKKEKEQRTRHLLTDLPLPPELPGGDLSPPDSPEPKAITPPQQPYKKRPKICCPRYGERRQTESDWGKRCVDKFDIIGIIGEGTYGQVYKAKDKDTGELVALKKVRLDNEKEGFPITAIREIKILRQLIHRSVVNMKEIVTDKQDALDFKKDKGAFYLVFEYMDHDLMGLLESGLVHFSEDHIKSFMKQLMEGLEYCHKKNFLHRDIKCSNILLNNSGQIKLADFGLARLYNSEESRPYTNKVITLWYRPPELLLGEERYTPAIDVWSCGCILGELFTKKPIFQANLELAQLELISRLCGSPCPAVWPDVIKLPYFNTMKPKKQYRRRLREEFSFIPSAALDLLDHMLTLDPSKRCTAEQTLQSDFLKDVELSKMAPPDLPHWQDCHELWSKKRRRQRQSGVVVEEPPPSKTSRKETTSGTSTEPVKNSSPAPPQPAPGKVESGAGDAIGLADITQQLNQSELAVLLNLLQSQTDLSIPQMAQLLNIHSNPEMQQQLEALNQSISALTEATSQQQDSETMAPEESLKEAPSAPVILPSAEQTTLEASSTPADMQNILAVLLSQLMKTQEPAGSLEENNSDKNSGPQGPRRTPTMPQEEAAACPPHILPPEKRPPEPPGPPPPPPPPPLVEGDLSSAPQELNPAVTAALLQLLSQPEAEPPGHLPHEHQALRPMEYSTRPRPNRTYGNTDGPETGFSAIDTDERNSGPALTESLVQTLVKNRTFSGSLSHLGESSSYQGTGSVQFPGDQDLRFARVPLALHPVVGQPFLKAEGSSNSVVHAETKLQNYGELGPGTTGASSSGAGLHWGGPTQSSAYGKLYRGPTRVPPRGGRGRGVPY
- Sequence (O75909 whole entry partner): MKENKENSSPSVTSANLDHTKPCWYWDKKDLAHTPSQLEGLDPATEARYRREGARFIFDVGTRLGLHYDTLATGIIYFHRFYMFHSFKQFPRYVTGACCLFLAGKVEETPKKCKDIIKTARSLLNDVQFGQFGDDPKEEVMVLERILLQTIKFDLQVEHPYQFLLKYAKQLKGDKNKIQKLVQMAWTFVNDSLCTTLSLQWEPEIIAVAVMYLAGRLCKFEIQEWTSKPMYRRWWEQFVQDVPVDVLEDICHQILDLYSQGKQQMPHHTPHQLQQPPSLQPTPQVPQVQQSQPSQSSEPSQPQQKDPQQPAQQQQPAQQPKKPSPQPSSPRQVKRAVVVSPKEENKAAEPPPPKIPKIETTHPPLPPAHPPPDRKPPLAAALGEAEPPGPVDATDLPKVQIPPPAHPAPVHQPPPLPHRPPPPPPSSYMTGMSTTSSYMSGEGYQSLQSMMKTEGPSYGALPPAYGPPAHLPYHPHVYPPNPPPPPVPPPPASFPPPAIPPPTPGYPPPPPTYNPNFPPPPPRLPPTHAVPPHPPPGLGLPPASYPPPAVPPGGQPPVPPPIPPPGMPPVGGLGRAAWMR
- Test Description: Biochemical assay for CDK12 (LANCE TR-FRET, IC50 determination)
- Condition Context: compound at 10 μM; read-out: CDK12 % Inhibition @ 10 μM
Quantity Name: inhibition at 10 µM (%)
Quick reminder: number only, in %, skip the unit.

In: Provide measured inhibition at 10 µM on CDK12 (Homo sapiens, UniProt Q9NYV4) for COc1cc(NC(=O)Cc2ccc(C3CCCN(C#N)C3)nc2)ncc1Cl (stereo not shown) [Compound 78] please.
Out: 87

In: Provide measured inhibition at 10 µM on CDK12 (Homo sapiens, UniProt Q9NYV4) for COc1cc(NC(=O)Cc2ccc(C34CCN(C#N)CC3C4)nc2)ncc1Cl (stereo not shown) [Compound 133] please.
Out: 94

In: Provide measured inhibition at 10 µM on CDK12 (Homo sapiens, UniProt Q9NYV4) for CNC(=O)C(C)Oc1cc(NC(=O)Cc2ccc(C3=CCCN(C#N)C3)nc2)ncc1Cl (single isomer, unassigned) [Compound 57] please.
Out: 78

In: Provide measured inhibition at 10 µM on CDK12 (Homo sapiens, UniProt Q9NYV4) for COCCOc1cc(C#N)nc(-c2ccc(CC(=O)Nc3cc(OC)c(Cl)cn3)cn2)c1 [Compound 169] please.
Out: 95

In: Provide measured inhibition at 10 µM on CDK12 (Homo sapiens, UniProt Q9NYV4) for COc1cc(NC(=O)Cc2ccc(C3CCN(C#N)CC3)nc2)ncc1C1CC1 [Compound 124] please.
Out: 86

In: Provide measured inhibition at 10 µM on CDK12 (Homo sapiens, UniProt Q9NYV4) for COc1cc(NC(=O)Cc2ccc(C3=CCN(C#N)CC3C)nc2)ncc1Cl (stereo not shown) [Compound 70] please.
Out: 94

In: Provide measured inhibition at 10 µM on CDK12 (Homo sapiens, UniProt Q9NYV4) for COc1cc(NC(=O)Cc2ccc(N3CCN(C#N)CC3)nc2)ncc1Cl [Compound 134] please.
Out: 82

###

Assignment: determine reported inhibition at 10 µM for the given compounds.
- System: CDK12 (Homo sapiens)
- Test Description: Biochemical assay for CDK12 (LANCE TR-FRET, IC50 determination)
- Condition Context: compound at 10 μM; read-out: CDK12 % Inhibition @ 10 μM
Quick reminder: number only, in %, skip the unit.

In: Retrieve inhibition at 10 µM measured for COc1cc(NC(=O)Cc2ccc(C3=CC4CN(C#N)CC4C3)cc2)ncc1Cl (stereo not drawn) and print it.
Out: 98

In: Retrieve inhibition at 10 µM measured for "N#CN1CCC=C(c2ccc(CC(=O)Nc3ccc(Cl)cn3)cn2)C1" and print it.
Out: 75

In: Retrieve inhibition at 10 µM measured for "COc1cc(NC(=O)Cc2ccc(-c3cc(N4CC(O)C4)cc(C#N)n3)nc2)ncc1Cl" and print it.
Out: 75

In: Retrieve inhibition at 10 µM measured for COc1cc(NC(=O)Cc2ccc(C3CCN(C#N)CC3C)nc2)ncc1Cl (stereo not drawn) and print it.
Out: 87

In: Retrieve inhibition at 10 µM measured for CNC(=O)C(C)Oc1cc(NC(=O)Cc2ccc(-c3cccc(C#N)n3)nc2)ncc1Cl (racemic) and print it.
Out: 97

In: Retrieve inhibition at 10 µM measured for "N#CN1CC=C(c2ccc(CC(=O)Nc3cc(OC4CC5(CNC5)C4)c(Cl)cn3)cn2)CC1" and print it.
Out: 89

In: Retrieve inhibition at 10 µM measured for "COc1cc(NC(=O)Cc2ccc(C3=CCN(C#N)CC3)cn2)ncc1Cl" and print it.
Out: 86

In: Retrieve inhibition at 10 µM measured for "CN1CC2(CC(Oc3cc(NC(=O)Cc4ccc(C5=CCCN(C#N)C5)nc4)ncc3Cl)C2)C1" and print it.
Out: 93

In: Retrieve inhibition at 10 µM measured for COCC(C)Oc1cc(NC(=O)Cc2ccc(C3=CCN(C#N)CC3)nc2)ncc1Cl (stereo not drawn) and print it.
Out: 96

In: Retrieve inhibition at 10 µM measured for CNC(=O)C(C)Oc1cc(NC(=O)Cc2ccc(C3=CCN(C#N)CC3)nc2)ncc1Cl (single isomer, unassigned) [Compound 2] and print it.
Out: 90

In: Retrieve inhibition at 10 µM measured for CC1(C)CCC(Oc2cc(NC(=O)Cc3ccc(C4=CCN(C#N)CC4)nc3)ncc2Cl)CN1 (stereo not drawn) and print it.
Out: 80

In: Retrieve inhibition at 10 µM measured for "N#Cc1cccc(-c2ccc(CC(=O)Nc3cc(O[C@@H]4CCOC4)c(Cl)cn3)cn2)n1" and print it.
Out: 77

In: Retrieve inhibition at 10 µM measured for CN1CCC(Oc2cc(NC(=O)Cc3ccc(C4=CCN(C#N)CC4)nc3)ncc2Cl)C1 (stereo not drawn) [Compound 10] and print it.
Out: 72

In: Retrieve inhibition at 10 µM measured for "N#CN1CC=C(c2ccc(CC(=O)Nc3cc(OC4CCOCC4)c(Cl)cn3)cn2)CC1" and print it.
Out: 91

In: Retrieve inhibition at 10 µM measured for CN1CCC(Oc2cc(NC(=O)Cc3ccc(C4=CCN(C#N)CC4)nc3)ncc2Cl)C1 (stereo in doubt) [Compound 30] and print it.
Out: 82

In: Retrieve inhibition at 10 µM measured for "COc1cc(NC(=O)Cc2ccc(-c3cncc(C#N)n3)nc2)ncc1Cl" and print it.
Out: 84

In: Retrieve inhibition at 10 µM measured for "CNC(=O)[C@H](C)Oc1cc(NC(=O)Cc2ccc(-c3cccc(C#N)n3)nc2)ncc1Cl" and print it.
Out: 87

In: Retrieve inhibition at 10 µM measured for "CN1CCC[C@@H](Oc2cc(NC(=O)Cc3ccc(C4=CCN(C#N)CC4)nc3)ncc2Cl)C1" and print it.
Out: 84

In: Retrieve inhibition at 10 µM measured for "COc1cc(NC(=O)Cc2ccc(-c3cc(N4CCN(C)CC4)cc(C#N)n3)nc2)ncc1Cl" and print it.
Out: 94

In: Retrieve inhibition at 10 µM measured for "N#CN1CC=C(c2ccc(CC(=O)Nc3ccc(Cl)cn3)cn2)C1" and print it.
Out: 78

In: Retrieve inhibition at 10 µM measured for COc1cc(NC(=O)Cc2ccc(-c3cc(N4CC5CC4CN5C)cc(C#N)n3)nc2)ncc1Cl (stereo not drawn) and print it.
Out: 92

In: Retrieve inhibition at 10 µM measured for "N#CN1CCC(c2ccc(CC(=O)Nc3cc(O[C@H]4CCOC4)c(Cl)cn3)cn2)CC1" and print it.
Out: 95

In: Retrieve inhibition at 10 µM measured for "CN1CCC(Oc2cc(NC(=O)Cc3ccc(C4=CCN(C#N)CC4)nc3)ncc2Cl)CC1" and print it.
Out: 89

In: Retrieve inhibition at 10 µM measured for CN1CCCC1COc1cc(NC(=O)Cc2ccc(C3=CCCN(C#N)C3)nc2)ncc1Cl (stereo not drawn) and print it.
Out: 86

These measurements were taken from patent US20260000692A1.
